System: PTZ seizure threshold
PROTOCOL DETAILS: Pentylenetetrazole (PTZ, i.v.)-induced seizure threshold
Format: in vivo, rats
EXPERIMENTAL CONDITIONS: MED for producing ≥2× PTZ seizure threshold at baseline
I'd be grateful if you could share measured PTZ Threshold to Criteria for these entries.
Answers are plain numbers, in mg/kg.

| QUERY SMILES | RESULT UNIT | PTZ Threshold to Criteria |
| --- | --- | --- |
| C#Cc1ccc2c(c1)C(c1ccccn1)=NCc1c(-c3cnco3)ncn1-2 | mg/kg | 30 |

Could you now look at the following molecule, please?
Give its PTZ Threshold to Criteria value. Item: C#Cc1ccc2c(c1)C(c1ccccc1)=NCc1c(-c3cnco3)ncn1-2
30

====

PROTOCOL DETAILS: Rat inverted screen test (motor impairment)
EXPERIMENTAL CONDITIONS: male, Sprague-Dawley, rat, in vivo, intraperitoneal
QUANTITY KIND: MTD at 60 seconds (mg/kg)
One number for each entry, in mg/kg.

Query: MTD at 60 seconds; subject: C#Cc1ccc2c(c1)C(c1ccccc1)=NCc1c(-c3cnco3)ncn1-2 [KRM-II-82]
150

====

Tested on: seizures in amygdala kindled rats
PROTOCOL DETAILS: Basolateral amygdala kindling
Type: in vivo
EXPERIMENTAL CONDITIONS: amygdala kindled rats
QUANTITY KIND: After-Discharge Duration Potency (MED)

| COMPOUND | ENDPOINT RESULT |
| --- | --- |
| CN1C(=O)CN=C(c2ccccc2)c2cc(Cl)ccc21 [Diazepam, diazepam, reference compound] | >10 mg/kg |

For every item below, please supply its After-Discharge Duration Potency (MED).
1. C#Cc1ccc2c(c1)C(c1ccccc1)=NCc1c(-c3cnco3)ncn1-2
2. C#Cc1ccc2c(c1)C(c1ccccn1)=NCc1c(-c3cnco3)ncn1-2
3. C#Cc1ccc2c(c1)C(c1ccccn1)=NCc1c(C(=O)OCC)ncn1-2 [HZ-166, reference compound]

1. >30 mg/kg
2. 10 mg/kg
3. >60 mg/kg

====

Assign Electroshock (minimal effective dose, MED) to each entry below.
Test system: electroshock-induced seizures
PROTOCOL DETAILS: Mouse electroshock-induced seizure model
Type: in vivo
EXPERIMENTAL CONDITIONS: lowest dose with statistically significant protection vs vehicle; mice
Give bare numbers, in mg/kg.

As a guide, the following entries are already answered.
| MOLECULE | RESULT UNIT | ENDPOINT RESULT |
| --- | --- | --- |
| C#Cc1ccc2c(c1)C(c1ccccc1)=NCc1c(-c3cnco3)ncn1-2 | mg/kg | 30 |
| C#Cc1ccc2c(c1)C(c1ccccn1)=NCc1c(-c3cnco3)ncn1-2 | mg/kg | 10 |
| CN1C(=O)CN=C(c2ccccc2)c2cc(Cl)ccc21 [Diazepam, diazepam, reference compound] | mg/kg | 3 |

Next up:
So what's the measured Electroshock (minimal effective dose, MED) for this one? C#Cc1ccc2c(c1)C(c1ccccn1)=NCc1c(C(=O)OCC)ncn1-2 [HZ-166, reference compound]
30
